target: human PDHK2 (hPDHK2) (Homo sapiens (Human), UniProt Q15119)
experiment: Inhibitory action of PDHK activity in vitro (kinase reaction, residual PDH activity measured)
Format: biochemical
assay.context: read-out: PDHK inhibitory activity IC50
Below, each entry is listed alongside its reported log10(IC50).
Short version: log10 scale, IC50, µM.

1. N#Cc1cc(C(=O)N2CCC2)cc2c1-c1ccccc1C2(O)C(F)(F)F (centres unmarked) [compound 141]	-1.11
2. CC(C)(CC(=O)O)n1cc(-c2cc(F)cc3c2-c2ccccc2C3(O)C(F)(F)F)cn1 (single isomer, unassigned) [compound 610]	-1.39
3. Cc1cc(-c2ccc3c(c2)C(O)(C(F)(F)F)c2ccccc2-3)ccn1 (centres unmarked) [compound 198]	-0.90

Moving on to the next compound.
**Q:** Fill in reported log10(IC50) for this entry: O=C(c1ccc2c(c1)C(O)(C(F)(F)F)c1ccccc1-2)N1CCCC1 (centres unmarked) [compound 53]
**A:** -0.25

---

target: human PDHK2 (hPDHK2) (Homo sapiens (Human), UniProt Q15119)
experiment: Inhibitory action of PDHK activity in vitro (kinase reaction, residual PDH activity measured)
Format: biochemical
assay.context: PDHK inhibitory activity, class symbol of IC50
pIC50: −log10 of the molar value.
Below, each entry is listed alongside its reported pIC50.

// worked examples, pIC50 included
1. CC(=O)Nc1cccc2c1-c1ccccc1C2(O)C(F)(F)F (stereo not drawn) [compound 19]	< 6.00
2. CNc1cccc2c1-c1ccccc1C2(O)C(F)(F)F (stereo not drawn) [compound 85]	< 6.00

**Q:** Name the recorded pIC50 of CCOc1cccc2c1-c1ccccc1C2(O)C(F)(F)F (stereo not drawn) [compound 66] , assay system human PDHK2 (hPDHK2) (Homo sapiens (Human), UniProt Q15119).
**A:** < 6.00

**Q:** Name the recorded pIC50 of CC(C)(C)C(=O)N1CCN(c2cc(Cl)c3c(c2)C(O)(C(F)(F)F)c2ccccc2-3)CC1 (stereo not drawn) [compound 271] , assay system human PDHK2 (hPDHK2) (Homo sapiens (Human), UniProt Q15119).
**A:** > 7.00

**Q:** Name the recorded pIC50 of CC(=O)N(C)C(C)COc1ccc2c(c1)C(O)(C(F)(F)F)c1ccccc1-2 (stereo not drawn) [compound 381] , assay system human PDHK2 (hPDHK2) (Homo sapiens (Human), UniProt Q15119).
**A:** 6.00 to 7.00

---

target: human PDHK2 (hPDHK2) (Homo sapiens (Human))
experiment: Inhibitory action of PDHK activity in vitro (kinase reaction, residual PDH activity measured)
Type: biochemical
assay.context: PDHK inhibitory activity, class symbol of IC50
metric: IC50

// worked examples, IC50 included
1. CCC(=O)c1cccc2c1-c1ccccc1C2(O)C(F)(F)F (stereo not shown) [compound 81]	> 1000 nM
2. O=C(c1ccc2c(c1)C(O)(C(F)(F)F)c1ccccc1-2)c1cccs1 (stereo not shown) [compound 99]	100 to 1000 nM

**Q:** Name the recorded IC50 of CNC(=O)C1CCN(C(=O)c2ccc3c(c2)C(O)(C(F)(F)F)c2ccccc2-3)C1 (stereo not shown) [compound 227] , assay system human PDHK2 (hPDHK2) (Homo sapiens (Human)).
**A:** > 1000 nM

**Q:** Name the recorded IC50 of CNC(=O)c1ccc(-c2ccc3c(c2)C(O)(C(F)(F)F)c2ccccc2-3)cc1Cl (stereo not shown) [compound 240] , assay system human PDHK2 (hPDHK2) (Homo sapiens (Human)).
**A:** 100 to 1000 nM

**Q:** Name the recorded IC50 of O=C(c1cc(CO)c2c(c1)C(O)(C(F)(F)F)c1ccccc1-2)N1CCC1 (stereo not shown) [compound 556] , assay system human PDHK2 (hPDHK2) (Homo sapiens (Human)).
**A:** < 100 nM

**Q:** Name the recorded IC50 of COC(=O)c1ccc(-c2ccc3c(c2)C(O)(C(F)(F)F)c2ccccc2-3)cc1Cl (stereo not shown) [compound 236] , assay system human PDHK2 (hPDHK2) (Homo sapiens (Human)).
**A:** 100 to 1000 nM

**Q:** Name the recorded IC50 of O=C1CCCN1CCCOc1ccc2c(c1)C(O)(C(F)(F)F)c1ccccc1-2 (stereo not shown) [compound 395] , assay system human PDHK2 (hPDHK2) (Homo sapiens (Human)).
**A:** 100 to 1000 nM

**Q:** Name the recorded IC50 of OC1(C(F)(F)F)c2ccccc2-c2ccc(-c3cccc(Cl)c3)cc21 (stereo not shown) [compound 132] , assay system human PDHK2 (hPDHK2) (Homo sapiens (Human)).
**A:** 100 to 1000 nM

**Q:** Name the recorded IC50 of Cn1cc(-c2cc(C(=O)N3CC(CO)C3)cc3c2-c2ccccc2C3(O)C(F)(F)F)cn1 (stereo not shown) [compound 374] , assay system human PDHK2 (hPDHK2) (Homo sapiens (Human)).
**A:** < 100 nM

**Q:** Name the recorded IC50 of OC1(C(F)(F)F)c2ccccc2-c2c(Br)cc(Cl)cc21 (stereo not shown) [compound 272] , assay system human PDHK2 (hPDHK2) (Homo sapiens (Human)).
**A:** 100 to 1000 nM

**Q:** Name the recorded IC50 of OCCn1cc(-c2cnc3c(c2)C(O)(C(F)(F)F)c2ccccc2-3)cn1 (stereo not shown) [compound 563] , assay system human PDHK2 (hPDHK2) (Homo sapiens (Human)).
**A:** < 100 nM

**Q:** Name the recorded IC50 of Cn1cc(-c2cc(C(=O)N3CCC(CO)C3)cc3c2-c2ccccc2C3(O)C(F)(F)F)cn1 (stereo not shown) [compound 394] , assay system human PDHK2 (hPDHK2) (Homo sapiens (Human)).
**A:** < 100 nM

**Q:** Name the recorded IC50 of COC(=O)C1CCN1C(=O)c1ccc2c(c1)C(O)(C(F)(F)F)c1ccccc1-2 (stereo not shown) [compound 304] , assay system human PDHK2 (hPDHK2) (Homo sapiens (Human)).
**A:** 100 to 1000 nM

**Q:** Name the recorded IC50 of NC(=O)C1CN(C(=O)c2ccc3c(c2)C(O)(C(F)(F)F)c2ccccc2-3)C1 (stereo not shown) [compound 123] , assay system human PDHK2 (hPDHK2) (Homo sapiens (Human)).
**A:** 100 to 1000 nM

**Q:** Name the recorded IC50 of CN(CCOc1cc(-c2cnn(C)c2)c2c(c1)C(O)(C(F)(F)F)c1ccccc1-2)C(=O)C(C)(C)C (stereo not shown) [compound 471] , assay system human PDHK2 (hPDHK2) (Homo sapiens (Human)).
**A:** < 100 nM

---

target: human PDHK2 (hPDHK2) (Homo sapiens (Human), UniProt Q15119)
experiment: Inhibitory action of PDHK activity in vitro (kinase reaction, residual PDH activity measured)
Format: biochemical
assay.context: PDHK inhibitory activity IC50 (μmol/L)
Description: In the case of human PDHK2 (hPDHK2, Genbank Accession No. NM_002611), modified hPDHK2 cDNA wherein FLAG-Tag sequence is added to the N terminal by a polymerase linkage reaction was prepared based on hPDHK2 cDNA clone (pReceiver-M01/PDK2-GeneCopoeia), and cloned into a vector (pET17b-Novagen). The recombinant construct was transformed into Escherichia coli (DH5α-TOYOBO). The recombinant clones were identified, plasmid DNA was isolated and subjected to the DNA sequence analysis. […]
metric: log10 IC50 (log10 of the value in nM)
Short version: log10 scale, IC50, nM.

// worked examples, log10 IC50 included
1) O=C(O)Cn1cc(-c2cc(F)cc3c2-c2ccccc2[C@]3(O)C(F)(F)F)cn1 (stereo in doubt) [compound 551]	2.04
2) OCC1(n2cc(-c3cc(F)cc4c3-c3ccccc3[C@]4(O)C(F)(F)F)cn2)CCCCC1 (stereo in doubt) [compound 545]	1.23
3) O=C(O)C1(n2cc(-c3cc(F)cc4c3-c3ccccc3[C@]4(O)C(F)(F)F)cn2)CCCC1 (stereo in doubt) [compound 549]	1.43

**Q:** Fill in reported log10 IC50 for this entry: OCCn1cc(-c2cc(F)cc3c2-c2ccccc2[C@]3(O)C(F)(F)F)cn1 (stereo in doubt) [compound 531]
**A:** 1.30

**Q:** Fill in reported log10 IC50 for this entry: OCC1(n2cc(-c3cc(F)cc4c3-c3ccccc3[C@]4(O)C(F)(F)F)cn2)CCCC1 (stereo in doubt) [compound 548]
**A:** 1.20

---

target: UniProt:Q15119
experiment: Inhibitory action of PDHK activity in vitro (kinase reaction, residual PDH activity measured)
Format: biochemical
assay.context: read-out: PDHK inhibitory activity IC50
metric: IC50 (µM)
Unit µM implied. Number only.

// worked examples, IC50 included
1) Cn1cc(-c2cc(OCC(=O)O)cc3c2-c2ccccc2C3(O)C(F)(F)F)cn1 (centres unmarked) [compound 433]	0.388
2) OCCn1cc(-c2cc(F)cc3c2-c2ccccc2C3(O)C(F)(F)F)cn1 (centres unmarked)	0.046
3) Cc1cc(-c2cnn(C(CO)CO)c2)c2c(c1)C(O)(C(F)(F)F)c1ccccc1-2 (single isomer, unassigned)	0.019
4) OCCCCCOc1cc(-c2cncnc2)c2c(c1)C(O)(C(F)(F)F)c1ccccc1-2 (centres unmarked)	0.025

**Q:** Fill in reported IC50 for this entry: CC1CN(C(=O)c2ccc3c(c2)C(O)(C(F)(F)F)c2ccccc2-3)C1 (centres unmarked)
**A:** 2.53

**Q:** Fill in reported IC50 for this entry: COC(=O)c1ccc2c(c1)-c1ccccc1C2(O)C(F)(F)F (centres unmarked)
**A:** 2.47

**Q:** Fill in reported IC50 for this entry: CCCOc1ccc2c(c1)C(O)(C(F)(F)F)c1ccccc1-2 (centres unmarked)
**A:** 1.26

**Q:** Fill in reported IC50 for this entry: CCCCOc1ccc2c(c1)C(O)(C(F)(F)F)c1ccccc1-2 (centres unmarked)
**A:** 0.719

**Q:** Fill in reported IC50 for this entry: NC(=O)c1cc(-c2cncnc2)cc2c1-c1ccccc1C2(O)C(F)(F)F (centres unmarked)
**A:** 0.071

**Q:** Fill in reported IC50 for this entry: OCc1ccc2c(c1)C(O)(C(F)(F)F)c1ccccc1-2 (centres unmarked)
**A:** 16

**Q:** Fill in reported IC50 for this entry: OCCn1cc(-c2cc(CO)c3c(c2)C(O)(C(F)(F)F)c2ccccc2-3)cn1 (centres unmarked)
**A:** 0.105

**Q:** Fill in reported IC50 for this entry: CC(C)(O)Cn1cc(-c2cc(F)cc3c2-c2ccccc2C3(O)C(F)(F)F)cn1 (single isomer, unassigned)
**A:** 0.03

**Q:** Fill in reported IC50 for this entry: CC(=O)N(CCOc1ccc2c(c1)C(O)(C(F)(F)F)c1ccccc1-2)CCC(=O)O (centres unmarked)
**A:** 1.15

**Q:** Fill in reported IC50 for this entry: Cc1cc(-c2cnn(C(C)(C)CC(=O)O)c2)c2c(c1)C(O)(C(F)(F)F)c1ccccc1-2 (single isomer, unassigned)
**A:** 0.03

**Q:** Fill in reported IC50 for this entry: CCN(CC)C(=O)C1CN(C(=O)c2ccc3c(c2)C(O)(C(F)(F)F)c2ccccc2-3)C1 (centres unmarked)
**A:** 0.236

**Q:** Fill in reported IC50 for this entry: COC(=O)c1cc(-c2cnn(C)c2)c2c(c1)C(O)(C(F)(F)F)c1ccccc1-2 (centres unmarked)
**A:** 0.053

All values here come from patent US8871934B2.
